Test: The drug is tested on WLS-170 corresponding to human gut metagenome with ENA study accession number: PRJEB37062 and ENA sample accession number: ERS12561762 for biotransformation under anaerobic condition. The drug concentrations were measured over 9 timepoints collected between 0 and 24 hours of incubation by liquid-chromatography-coupled mass spectrometry (LC–MS); note: call rule not given here
Details: 2 µM
endpoint_label: Bacterial Biotransformation

Examples with their reported Bacterial Biotransformation follow.
>  <molecule>
CCCCc1nc(Cl)c(CO)n1Cc1ccc(-c2ccccc2-c2nn[nH]n2)cc1

>  <Bacterial Biotransformation>
Compound metabolized

$$$$
>  <molecule>
CN1CCC(=C2c3ccccc3CCc3cccnc32)CC1.O=C(O)/C=C\C(=O)O.O=C(O)/C=C\C(=O)O [AZATADINE MALEATE]

>  <Bacterial Biotransformation>
Compound NOT metabolized

$$$$
>  <molecule>
COc1ccc2c(c1OC)C(=O)O[C@@H]2[C@H]1c2c(cc3c(c2OC)OCO3)CCN1C

>  <Bacterial Biotransformation>
Compound metabolized

$$$$
>  <molecule>
COC(=O)Nc1nc2ccc(C(=O)c3ccccc3)cc2[nH]1

>  <Bacterial Biotransformation>
Compound metabolized

$$$$
>  <molecule>
Cc1nc(-c2ccc(OCC(C)C)c(C#N)c2)sc1C(=O)O

>  <Bacterial Biotransformation>
Compound metabolized

$$$$

Look at each molecule and report its Bacterial Biotransformation.
1. Cc1cn([C@H]2C[C@H](N=[N+]=[N-])[C@@H](CO)O2)c(=O)[nH]c1=O
2. CN1CCN(CC/C=C2/c3ccccc3Sc3ccc(S(=O)(=O)N(C)C)cc32)CC1

1: Compound NOT metabolized; 2: Compound metabolized

# input molecule: CN(C(=O)CN(CCO)CC(=O)N(C)C(C)(C)Cc1ccccc1)C(C)(C)Cc1ccccc1 ; wanted: its Bacterial Biotransformation Compound metabolized

* * *

Test: The drug is tested on Z-002 corresponding to rabbit gut metagenome with ENA study accession number: PRJEB37062 and ENA sample accession number: ERS12561802 for biotransformation under anaerobic condition. The drug concentrations were measured over 9 timepoints collected between 0 and 24 hours of incubation by liquid-chromatography-coupled mass spectrometry (LC–MS)
Settings: 2 µM
endpoint_label: Bacterial Biotransformation

Past entries and their recorded results:
>  <compound>
CCCC1O[C@@H]2C[C@H]3[C@@H]4CCC5=CC(=O)C=C[C@]5(C)[C@H]4[C@@H](O)C[C@]3(C)[C@]2(C(=O)CO)O1 (stereo partly specified) [BUDESONIDE]

>  <result>
Compound metabolized

$$$$
>  <compound>
CC(=O)CC(c1ccccc1)c1c(O)c2ccccc2oc1=O (stereo unspecified) [WARFARIN]

>  <result>
Compound metabolized

$$$$
>  <compound>
C[C@@H]1C[C@H]2[C@@H]3CCC4=CC(=O)C=C[C@]4(C)[C@@]3(F)[C@@H](O)C[C@]2(C)[C@@]1(O)C(=O)CO [DEXAMETHASONE]

>  <result>
Compound metabolized

$$$$
>  <compound>
CCCC(=O)Nc1ccc(OCC(O)CNC(C)C)c(C(C)=O)c1 (stereo unspecified) [ACEBUTOLOL]

>  <result>
Compound metabolized

$$$$
>  <compound>
COCCc1ccc(OCC(O)CNC(C)C)cc1.COCCc1ccc(OCC(O)CNC(C)C)cc1.O=C(O)C(O)C(O)C(=O)O (stereo unspecified) [METOPROLOL TARTRATE]

>  <result>
Compound metabolized

$$$$
>  <compound>
O=C1NCC2(CCN(CCc3ccccc3)CC2)O1 [FENSPIRIDE]

>  <result>
Compound metabolized

$$$$
>  <compound>
Cc1cn([C@H]2C[C@H](N=[N+]=[N-])[C@@H](CO)O2)c(=O)[nH]c1=O [ZIDOVUDINE]

>  <result>
Compound metabolized

$$$$
>  <compound>
O=C(CCCN1CCC(O)(c2ccc(Cl)cc2)CC1)c1ccc(F)cc1 [HALOPERIDOL]

>  <result>
Compound metabolized

$$$$

Lab note: each compound below needs its Bacterial Biotransformation filled in.
1. CC(Oc1c(Cl)cccc1Cl)C1=NCCN1 (stereo unspecified) [LOFEXIDINE]
2. Nc1c2c(nc3ccccc13)CCCC2 [TACRINE]
3. O=P(O)(O)O.c1ccc(CN(CC2=NCCN2)c2ccccc2)cc1 [ANTAZOLINE PHOSPHATE]

1. Compound metabolized
2. Compound metabolized
3. Compound metabolized

* * *

Conditions: human gut metagenome, 24 h, 2 µM
endpoint_label: Bacterial Biotransformation

Study these solved cases before continuing.
>  <compound>
CC(C)(C#N)c1cc(Cn2cncn2)cc(C(C)(C)C#N)c1

>  <result>
Compound NOT metabolized

$$$$
>  <compound>
CN1CCC(=C2c3ccccc3CCc3cccnc32)CC1.O=C(O)/C=C\C(=O)O.O=C(O)/C=C\C(=O)O [AZATADINE MALEATE]

>  <result>
Compound NOT metabolized

$$$$
>  <compound>
COCCc1ccc(OCC(O)CNC(C)C)cc1.COCCc1ccc(OCC(O)CNC(C)C)cc1.O=C(O)C(O)C(O)C(=O)O (stereo not given) [METOPROLOL TARTRATE]

>  <result>
Compound metabolized

$$$$
>  <compound>
Cc1cc2c(cc1S(N)(=O)=O)S(=O)(=O)CCC2

>  <result>
Compound NOT metabolized

$$$$

Moving on to the next compound.
Which Bacterial Biotransformation is reported for this compound? O=C1NCC2(CCN(CCc3ccccc3)CC2)O1 [FENSPIRIDE] Compound metabolized

* * *

Conditions: human gut metagenome, 24 h, 2 µM
endpoint_label: Bacterial Biotransformation

>  <compound>
CN1C(=O)CCS(=O)(=O)C1c1ccc(Cl)cc1 (stereo not drawn)

>  <result>
Compound NOT metabolized

$$$$
>  <compound>
CC(C)NCC(O)COc1ccc(COCCOC(C)C)cc1.CC(C)NCC(O)COc1ccc(COCCOC(C)C)cc1.O=C(O)/C=C/C(=O)O (stereo not drawn) [BISOPROLOL FUMARATE]

>  <result>
Compound NOT metabolized

$$$$

* * *

Settings: human gut metagenome, 24 h, 2 µM
endpoint_label: Bacterial Biotransformation

Please review the following examples before continuing.
>  <compound>
CC(=O)CC(c1ccccc1)c1c(O)c2ccccc2oc1=O (stereo not given) [WARFARIN]

>  <endpoint_label>
Bacterial Biotransformation

>  <result>
Compound metabolized

$$$$
>  <compound>
CCN(CC)CCNC(=O)c1cc(Cl)c(N)cc1OC [METOCLOPRAMIDE]

>  <endpoint_label>
Bacterial Biotransformation

>  <result>
Compound NOT metabolized

$$$$
>  <compound>
NC(=O)N1c2ccccc2CC(=O)c2ccccc21 [OXCARBAZEPINE]

>  <endpoint_label>
Bacterial Biotransformation

>  <result>
Compound NOT metabolized

$$$$
>  <compound>
CN1CCN(CC/C=C2/c3ccccc3Sc3ccc(S(=O)(=O)N(C)C)cc32)CC1 [THIOTHIXENE]

>  <endpoint_label>
Bacterial Biotransformation

>  <result>
Compound metabolized

$$$$

Would you be so kind as to report Bacterial Biotransformation for each listed record?
1. CC[C@@H](CO)NC(=O)[C@@H]1C=C2c3cccc4c3c(cn4C)C[C@H]2N(C)C1.O=C(O)/C=C\C(=O)O [METHYSERGIDE MALEATE]
2. CCC1(c2ccc(N)cc2)CCC(=O)NC1=O (stereo not given) [AMINOGLUTETHIMIDE]
3. C[C@@H]1C[C@H]2[C@@H]3CCC4=CC(=O)C=C[C@]4(C)[C@@]3(F)[C@@H](O)C[C@]2(C)[C@@]1(O)C(=O)CO [DEXAMETHASONE]
4. CN(C)CCC=C1c2ccccc2C=Cc2ccccc21 [CYCLOBENZAPRINE]
5. CN1CCc2cccc3c2[C@H]1Cc1ccc(O)c(O)c1-3 [APOMORPHINE]

1. Compound NOT metabolized
2. Compound NOT metabolized
3. Compound NOT metabolized
4. Compound metabolized
5. Compound NOT metabolized

State the recorded Bacterial Biotransformation for this entry: CC(C)(C#N)c1cc(Cn2cncn2)cc(C(C)(C)C#N)c1 [ANASTROZOLE] Compound NOT metabolized

* * *

Experiment: The drug is tested on Z-004 corresponding to metagenome with ENA study accession number: PRJEB37062 and ENA sample accession number: ERS12561804 for biotransformation under anaerobic condition. The drug concentrations were measured over 9 timepoints collected between 0 and 24 hours of incubation by liquid-chromatography-coupled mass spectrometry (LC–MS)
Conditions: 2 µM
endpoint_label: Bacterial Biotransformation

Look over these answered cases.
>  <compound>
Cc1ccccc1N1C(=O)c2cc(S(N)(=O)=O)c(Cl)cc2NC1C (stereo not drawn)

>  <result>
Compound NOT metabolized

$$$$
>  <compound>
NC(=O)N1c2ccccc2CC(=O)c2ccccc21 [OXCARBAZEPINE]

>  <result>
Compound metabolized

$$$$
>  <compound>
CCC(=O)NCC[C@@H]1CCc2ccc3c(c21)CCO3

>  <result>
Compound metabolized

$$$$
>  <compound>
CC(=O)OCC(=O)[C@@]1(O)[C@@H](C)C[C@H]2[C@@H]3CCC4=CC(=O)C=C[C@]4(C)[C@@]3(F)[C@@H](O)C[C@@]21C [BETAMETHASONE ACETATE]

>  <result>
Compound NOT metabolized

$$$$
>  <compound>
CC(C)(C#N)c1cc(Cn2cncn2)cc(C(C)(C)C#N)c1

>  <result>
Compound NOT metabolized

$$$$

State the recorded Bacterial Biotransformation for every item in the following list.
1. CC(=O)OCC(=O)[C@@]12N=C(C)O[C@@H]1C[C@H]1[C@@H]3CCC4=CC(=O)C=C[C@]4(C)[C@H]3[C@@H](O)C[C@@]12C
2. Cc1ccnc2c1NC(=O)c1cccnc1N2C1CC1
3. O=c1n(CCCN2CCN(c3cccc(Cl)c3)CC2)nc2ccccn12
4. CCCC(=O)Nc1ccc(OCC(O)CNC(C)C)c(C(C)=O)c1 (stereo not drawn)

Compound metabolized
Compound NOT metabolized
Compound metabolized
Compound NOT metabolized

Dear colleague, could you please provide Bacterial Biotransformation for the compounds listed below?
1. CCN(CC)CCOCCOC(=O)C1(c2ccccc2)CCCC1.O=C(O)CC(O)(CC(=O)O)C(=O)O [CARBETAPENTANE CITRATE]
2. c1ccc([C@H]2CN3CCSC3=N2)cc1

1: Compound metabolized; 2: Compound NOT metabolized

Batch of 2 compounds: report Bacterial Biotransformation for each.
1. CC(C)(C(=O)O)c1ccc(C(O)CCCN2CCC(C(O)(c3ccccc3)c3ccccc3)CC2)cc1 (stereo not drawn) [FEXOFENADINE]
2. C[C@@H](CO)NC(=O)[C@@H]1C=C2c3cccc4[nH]cc(c34)C[C@H]2N(C)C1.O=C(O)/C=C\C(=O)O [ERGONOVINE MALEATE]

1. Compound NOT metabolized
2. Compound NOT metabolized
